The reported measurements were obtained from patent US20010041801A1.

IC50 by entry:
# TESTED_ON: UniProt P04585
# TEST_SUMMARY: Inhibition of recombinant p66/51 HIV-1 RT, poly(rA)n.oligo(T)12-18 template-primer
# Assay type: biochemical
# PARTICULARS: cell-free; AZT-5′-triphosphate used for AZT; read-out: IC50 Polymerases: HIV-1 RT

COMPOUND	TESTED_ON	IC50
O=C(O)P(=O)(O)O [PFA, phosphonoformate, reference compound]	UniProt P04585	0.32 µM
Cc1cn([C@H]2C[C@H](N=[N+]=[N-])[C@@H](CO)O2)c(=O)[nH]c1=O [AZT, 3′-Azido-3′-deoxythymidine, reference compound]	UniProt P04585	0.04 µM

* * *

# TEST_SUMMARY: Cytotoxicity in CEM cells
# Assay type: cell-based
# PARTICULARS: human, CEM cells; cell counts on day 6
Entries and their IC50 at 6 days values follow.
METRIC_NAME: IC50 at 6 days

MOLECULE	TEST_VALUE
Cc1cn([C@H]2C[C@H](N=[N+]=[N-])[C@@H](CO)O2)c(=O)[nH]c1=O [AZT, 3′-Azido-3′-deoxythymidine, reference compound]	13 µM
O=C(O)CCC(=O)NCCc1ccc(C2(c3ccc(CCNC(=O)CCC(=O)O)cc3)C34c5c6c7c8c9c%10c(c%11c%12c3c3c5c5c%13c6c6c7c7c9c9c%14c%10c%10c%11c%11c%12c%12c3c3c5c5c%13c%13c6c6c7c9c7c9c%14c%10c%10c%11c%11c%12c3c3c5c5c%13c6c7c6c9c%10c%11c3c56)C824)cc1	> 100 µM

* * *

# System: Vero cells
# TEST_SUMMARY: Cytotoxicity in Vero cells
# Format: cell-based
# PARTICULARS: day 3

COMPOUND	IC50
O=C(O)P(=O)(O)O [PFA, phosphonoformate, reference compound]	> 100 µM

* * *

# System: PBMC
# TEST_SUMMARY: Cytotoxicity in uninfected PBMC
# Assay type: cell-based, human
# PARTICULARS: thymidine uptake day 2 and cell counts day 6
pIC50: −log10 of the molar value.

MOLECULE	pIC50
O=C(O)P(=O)(O)O [PFA, phosphonoformate, reference compound]	< 3.19

* * *

# TEST_SUMMARY: Cytotoxicity in H9 cells
# Format: cell-based, human
# PARTICULARS: human, H9 cells; cell counts on day 6

COMPOUND	U	OPERATOR	IC50 at 6 days
Cc1cn([C@H]2C[C@H](N=[N+]=[N-])[C@@H](CO)O2)c(=O)[nH]c1=O [AZT, 3′-Azido-3′-deoxythymidine, reference compound]	µM	=	60
O=C(O)CCC(=O)NCCc1ccc(C2(c3ccc(CCNC(=O)CCC(=O)O)cc3)C34c5c6c7c8c9c%10c(c%11c%12c3c3c5c5c%13c6c6c7c7c9c9c%14c%10c%10c%11c%11c%12c%12c3c3c5c5c%13c%13c6c6c7c9c7c9c%14c%10c%10c%11c%11c%12c3c3c5c5c%13c6c7c6c9c%10c%11c3c56)C824)cc1	µM	>	100

* * *

# Test system: CEM cells
# TEST_SUMMARY: Cytotoxicity in CEM cells
# Type: cell-based
# PARTICULARS: cell counts on day 6
pIC50: −log10 of the molar value.
METRIC_NAME: pIC50

MOLECULE	METRIC_NAME	TEST_VALUE
O=C(O)P(=O)(O)O [PFA, phosphonoformate, reference compound]	pIC50	< 4.00
